target: 5-hydroxytryptamine receptor 4 (Cavia porcellus, UniProt O70528)
Sequence (O70528 whole entry): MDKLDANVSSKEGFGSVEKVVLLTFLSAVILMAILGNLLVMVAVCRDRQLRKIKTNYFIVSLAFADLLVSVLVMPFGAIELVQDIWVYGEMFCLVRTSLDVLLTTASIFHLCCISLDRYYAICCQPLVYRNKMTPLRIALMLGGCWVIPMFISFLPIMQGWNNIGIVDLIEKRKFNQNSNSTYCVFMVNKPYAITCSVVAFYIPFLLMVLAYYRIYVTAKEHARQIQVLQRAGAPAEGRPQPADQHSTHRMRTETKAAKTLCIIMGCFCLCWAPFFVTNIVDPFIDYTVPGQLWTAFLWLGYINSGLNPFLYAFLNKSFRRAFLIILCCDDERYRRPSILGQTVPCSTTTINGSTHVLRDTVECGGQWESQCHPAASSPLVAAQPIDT
readout_label: pKi
# pKi = -log10(concentration in molar units)

Name the value of pKi reported for C#CCN1CCC(COc2nc3scc(C)c3n3cccc23)CC1 when tested on 5-hydroxytryptamine receptor 4 (Cavia porcellus, UniProt O70528). 6.05
